# Experimental system: hemagglutinin (HA) of influenza A/New York/107/03 (PR8) (influenza A virus A/New York/107/03 (PR8))
# Run description: cell-based or functional assay
Assay readout: VNA IC50

Solved entries (count: 3):
- Binder: "SD3094 (VHH) VHH: EVQLLESGGGLVQPGGSLRLSCAASGRTYAMGWFRQAPGKEREFVAHINALGTRTYYADSVKGRFTISRDNSKNTLYLQMNSLRAEDTAVYYCTAQGQWRAAPVAVAAEYEFWGQGTLVTVSS"
  VNA IC50: "6 nM"
- Binder: "SD3045 (VHH) VHH: EVQLVESGGGLVQAGGSLRLSCAASGRTLSIYSMSWFRQAPGKEREFVSAIGWNSGRTYYADSVKGRFTISRDNSKNTLYLQMNSLRAEDTAVYYCAAAKGPLRLSSQADYWGQGTQVTVSS"
  VNA IC50: "> 1000 nM"
- Binder: "SD3023 (VHH) VHH: EVQLLESGGGLVQAGGSLRLSCAASGRTYAMSWFRQAPGKEREFVSHINALGTRTYYADSVKGRFTISRDNSKNTLYLQMNSLRPEDTAVYYCTAQGQWRAAPVAVAAEYEFWGQGTQVTVSS"
  VNA IC50: "16 nM"

Exercise: Specify VNA IC50 for SD3026 (VHH) VHH: EVQLLESGGGLVQPGGSLRLSCAASGRTYAMSWFRQAPGKEREFVSAINALGTRTYYADSVKGRFTISRDNSKNTLYLQMNSLRAEDTAVYYCTAQGQWRAAPVAVAAEYEFWGQGTQVTVSS and stop.
Key: 8 nM

Exercise: Identify measured VNA IC50 associated with SD3044 (VHH) VHH: EVQLVESGGGLVQPGGSLRLSCAASGRTLSIYSMSWFRQAPGKEREFVSTIGWNSGRTYYADSVKGRFTISRDNARNTLYLQMNSLRAEDTAVYYCAAAKGPLRLSSQADYWGQGTQVTVSS
Key: > 1000 nM

Exercise: // Input: SD3043 (VHH) VHH: EVQLVESGGGLVQPGGSLRLSCAASGRTLSIYSMSWFRQAPGKEREFVATIGWNSGRTYYADSVKGRFTISRDNSKNTLYLQMNSLRAEDTAVYYCAAAKGPLRLSSQADYWGQGTQVTVSS . Output its VNA IC50 only.
Key: > 1000 nM

Exercise: # return recorded VNA IC50 for input SD3097 (VHH) VHH: EVQLLESGGGLVQPGGSLRLSCAASGRTYAMGWFRQAPGKEREFVAAINALGTRTYYADSVKGRFTISRDNSKNTLYLQMNSLRAEDTAVYYCTAQGQWRAAPVAVAAEYEFWGQGTLVTVSS
Key: 8 nM

Exercise: Give VNA IC50 for SD3041 (VHH) VHH: EVQLVESGGGLVQPGGSLRLSCAASGRTLSIYSMSWFRQAPGKEREFVSAIGWNSGRTYYADSVKGRFTISRDNSKNTLYLQMNSLRAEDTAVYYCAAAKGPLRLSSQADYWGQGTQVTVSS
Key: > 1000 nM
